B1: Twister Ribozyme (parent)
chain: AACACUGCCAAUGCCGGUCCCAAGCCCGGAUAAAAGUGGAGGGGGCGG

Variants of: B1
Assay: self-cleavage, relative activity (ratio to wild type); higher = more cleavage; co-transcriptional
Result Type: self-cleavage
Respond with the number and no other words.

# annotated cases, reported self-cleavage shown
AACACUGCGAAUGCCGGUCCCAAGCCCGGAUAAAAGUGAAGGGGGCGG [C9G G39A] | 0.137
AACACUGCCAAUGCCGGUCCCAAGCUCGGAUUAAAGUGGAGGGGGCGG [C26U A32U] | 0.34

What value of self-cleavage has been reported for the following variant? AACACUGCCAAUGCCGGUCCCAACCCCGGAUAAAAGUUGAGGGGGCGG [G24C G38U]
0.0774

Could you do the same for AACACUGCCAAUGCCGGUCCCAAGCCCGGAUAAGAGUGGAGGGGGCCG [A34G G47C] , please?
0.193

Could you do the same for AACACUGCCAAUGCCGGACCCAAGCCCGGAUUAAAGUGGAGGGGGCGG [U18A A32U] , please?
0.632
